# TARGET: DRB1*0101 (Homo sapiens, UniProt P01903+P01911, A100R/D57E/F55L/F60I/F76Y/I96L/L162R/M171V/P40L/Q125E/R42F/V115G/Y59C)
# ASSAY_NOTES: biochemical
# Type: binding
READOUT_TYPE: IC50 (nM)
Entry rule: numbers only, all in nM.

input: Fill in: IC50 of CC(C)C[C@H](NC(=O)[C@H](CCCNC(=N)N)NC(=O)[C@H](Cc1c[nH]cn1)NC(=O)[C@H](CC(=O)O)NC(=O)[C@H](CS)NC(=O)[C@H](CC(C)C)NC(=O)[C@H](CCC(N)=O)NC(=O)[C@@H](NC(=O)[C@H](Cc1ccc(O)cc1)NC(=O)[C@@H](NC(=O)[C@H](CCC(=O)O)NC(=O)[C@H](CCCNC(=N)N)NC(=O)[C@H](CC(C)C)NC(=O)[C@H](CCCCN)NC(=O)[C@@H](N)CC(C)C)C(C)C)[C@@H](C)O)C(=O)O is ___
output: 226

----------
# TARGET: DRB5*0101 (Homo sapiens, UniProt P01903+Q30154)
# ASSAY_NOTES: biochemical
READOUT_TYPE: IC50 (µM)
Entry rule: numbers only, all in µM.

| SMILES_TEXT | TARGET | U | IC50 |
| --- | --- | --- | --- |
| CC[C@H](C)[C@H](NC(=O)[C@H](CC(=O)O)NC(=O)[C@@H](N)CC(C)C)C(=O)N[C@@H](CCC(=O)O)C(=O)N[C@@H](CC(C)C)C(=O)N[C@@H](CCC(N)=O)C(=O)N[C@@H](CCCCN)C(=O)N[C@H](C(=O)N[C@@H](CCC(=O)O)C(=O)N[C@@H](C)C(=O)N[C@H](C(=O)N[C@@H](CCC(N)=O)C(=O)N[C@@H](CC(C)C)C(=O)N[C@@H](C)C(=O)N[C@H](C(=O)O)[C@@H](C)O)[C@@H](C)O)[C@@H](C)O | DRB5*0101 (Homo sapiens, UniProt P01903+Q30154) | µM | 0.684 |

input: Fill in: IC50 of CC(C)C[C@H](NC(=O)[C@H](CCCNC(=N)N)NC(=O)[C@H](Cc1c[nH]cn1)NC(=O)[C@H](CC(=O)O)NC(=O)[C@H](CS)NC(=O)[C@H](CC(C)C)NC(=O)[C@H](CCC(N)=O)NC(=O)[C@@H](NC(=O)[C@H](Cc1ccc(O)cc1)NC(=O)[C@@H](NC(=O)[C@H](CCC(=O)O)NC(=O)[C@H](CCCNC(=N)N)NC(=O)[C@H](CC(C)C)NC(=O)[C@H](CCCCN)NC(=O)[C@@H](N)CC(C)C)C(C)C)[C@@H](C)O)C(=O)O is ___
output: 1.3

----------
# TARGET: DRB1*0701 (Homo sapiens, UniProt P01903+P01911, A100R/A102G/A103Q/D57E/D86V/E43K/F76Y/K127E/L162R/M171V/P40G/Q125H/Q99D/R33Q/R42Y/R54Q/S133A/S66F/T210M/V115G/Y107V/Y59L/Y89S)
# ASSAY_NOTES: biochemical
# Assay type: binding
Where no end group is shown, it is not given here.
READOUT_TYPE: pIC50
API: returns pIC50 as number; meaning -log10 of concentration in mol/L.

input: Fill in: pIC50 of EGKVVQYENLKYTVI [Envelope 126-140] is ___
output: 5.64
